Property: MIC90; scope: individual compounds
System: Serratia marcescens
Assay: Antimicrobial activity against Serratia marcescens by broth microdilution method
Assay type: functional
measure: MIC90 (µg/mL)

CO/N=C(\C(=O)N[C@@H]1C(=O)N2C(C(=O)O)=C(CSc3nc(=O)c(O)nn3C)CS[C@H]12)c1csc(N)n1 | 2
C[C@H]1COc2c(N3CCN(C)CC3)c(F)cc3c(=O)c(C(=O)O)cn1c23.C[C@H]1COc2c(N3CCN(C)CC3)c(F)cc3c(=O)c(C(=O)O)cn1c23.O | 0.25
CCO/N=C(\C(=O)N[C@@H]1C(=O)N2C(C(=O)[O-])=C(Sc3nc(-c4cc[n+](C)cc4)cs3)CS[C@H]12)c1nsc(NP(=O)(O)O)n1 | 8
C[C@@H](O)[C@H]1C(=O)N2C(C(=O)O)=C(SCCNC=N)C[C@H]12 [IMIPENEM ANHYDROUS] | 1

---

Test system: Enterococcus faecalis
Assay: Antimicrobial activity against vancomycin-susceptible Enterococcus faecalis by broth microdilution method
Format: functional
measure: MIC90

C[C@@H](O)[C@H]1C(=O)N2C(C(=O)O)=C(SCCNC=N)C[C@H]12 [IMIPENEM ANHYDROUS] | 2 µg/mL
C[C@H]1COc2c(N3CCN(C)CC3)c(F)cc3c(=O)c(C(=O)O)cn1c23.C[C@H]1COc2c(N3CCN(C)CC3)c(F)cc3c(=O)c(C(=O)O)cn1c23.O | > 32 µg/mL
CCO/N=C(\C(=O)N[C@@H]1C(=O)N2C(C(=O)[O-])=C(Sc3nc(-c4cc[n+](C)cc4)cs3)CS[C@H]12)c1nsc(NP(=O)(O)O)n1 | 4 µg/mL
CO/N=C(\C(=O)N[C@@H]1C(=O)N2C(C(=O)O)=C(CSc3nc(=O)c(O)nn3C)CS[C@H]12)c1csc(N)n1 | > 32 µg/mL

---

Test system: Shigella sp.
Assay: Antimicrobial activity against Shigella spp. by broth microdilution method
Type: functional
measure: MIC90 (µg/mL)

C[C@@H](O)[C@H]1C(=O)N2C(C(=O)O)=C(SCCNC=N)C[C@H]12 [IMIPENEM ANHYDROUS] | 0.25
CO/N=C(\C(=O)N[C@@H]1C(=O)N2C(C(=O)O)=C(CSc3nc(=O)c(O)nn3C)CS[C@H]12)c1csc(N)n1 | 0.06
CCO/N=C(\C(=O)N[C@@H]1C(=O)N2C(C(=O)[O-])=C(Sc3nc(-c4cc[n+](C)cc4)cs3)CS[C@H]12)c1nsc(NP(=O)(O)O)n1 | 0.12
C[C@H]1COc2c(N3CCN(C)CC3)c(F)cc3c(=O)c(C(=O)O)cn1c23.C[C@H]1COc2c(N3CCN(C)CC3)c(F)cc3c(=O)c(C(=O)O)cn1c23.O | 0.06

---

Collected MIC50 values appear next to each entry.
System: Morganella morganii
Experiment: Antimicrobial activity against Morganella morganii by broth microdilution method
Type: functional
measure: MIC50 (µg/mL)

C[C@H]1COc2c(N3CCN(C)CC3)c(F)cc3c(=O)c(C(=O)O)cn1c23.C[C@H]1COc2c(N3CCN(C)CC3)c(F)cc3c(=O)c(C(=O)O)cn1c23.O [LEVOFLOXACIN] | 0.06
C[C@@H](O)[C@H]1C(=O)N2C(C(=O)O)=C(SCCNC=N)C[C@H]12 [IMIPENEM ANHYDROUS] | 4
CO/N=C(\C(=O)N[C@@H]1C(=O)N2C(C(=O)O)=C(CSc3nc(=O)c(O)nn3C)CS[C@H]12)c1csc(N)n1 [CEFTRIAXONE] | 0.5
